# Tested on: human progesterone receptor (hPR)
# assay protocol: human progesterone receptor binding assay (displacement of 3(H) R5020 Promegestone)
Give hPR % inh 10 μM for every item shown.
Give bare numbers, in %.

compound: CC(C)(C)C(=O)NCC1(c2ccccc2)CC1(c1ccccc1)c1ccccc1 (centres unmarked)
experimental target: human progesterone receptor (hPR)
unit annotation: %
hPR % inh 10 μM: 12.6

Give me hPR % inh 10 μM for each of these compounds, listed below.
1. COc1ccc(CC(=O)NCC(c2ccccc2)C(c2ccccc2)c2ccccc2)cc1OC (centres unmarked)
2. O=C(CCCc1ccccc1)NCC(c1ccccc1)C(c1ccccc1)c1ccccc1 (centres unmarked)
3. O=S(=O)(NCC(c1ccccc1)C(c1ccccc1)c1ccccc1)c1cccs1 (centres unmarked)

stdout:
1. 11.6
2. 10
3. 22

* * *

# Test system: human progesterone receptor (hPR)
# assay protocol: human progesterone receptor binding assay (displacement of 3(H) R5020 Promegestone)
Assign Satisfied whenever hPR % inh 10 μM does not fall below 20%; assign Not satisfied whenever it does.

Answered cases to consult:
compound: O=C(Cc1cccs1)NCC(c1ccccc1)C1c2ccccc2-c2ccccc21 (centres unmarked)
class name: Not satisfied
//
compound: O=C(Cc1c[nH]c2ccccc12)NCC(c1ccccc1)C(c1ccccc1)c1ccccc1 (centres unmarked)
class name: Not satisfied
//
compound: O=C(Cc1ccc(C(F)(F)F)cc1)NCC(c1ccccc1)C(c1ccccc1)c1ccccc1 (centres unmarked)
class name: Not satisfied
//
compound: CC(C)C(=O)NCC1(c2ccccc2)CC1(c1ccccc1)c1ccccc1 (centres unmarked)
class name: Not satisfied
//
compound: CCCC(=O)NCC1(c2ccccc2)CC1(c1ccccc1)c1ccccc1 (centres unmarked)
class name: Satisfied

stdin: Decide: hPR % inh 10 μM of O=C(Cc1ccccc1Cl)NCC1(c2ccccc2)CC1(c1ccccc1)c1ccccc1 (centres unmarked) >= 20%?
stdout: Not satisfied

* * *

# experimental target: human glucocorticoid receptor (hGR) (Homo sapiens)
# Sequence (P04150 1-777): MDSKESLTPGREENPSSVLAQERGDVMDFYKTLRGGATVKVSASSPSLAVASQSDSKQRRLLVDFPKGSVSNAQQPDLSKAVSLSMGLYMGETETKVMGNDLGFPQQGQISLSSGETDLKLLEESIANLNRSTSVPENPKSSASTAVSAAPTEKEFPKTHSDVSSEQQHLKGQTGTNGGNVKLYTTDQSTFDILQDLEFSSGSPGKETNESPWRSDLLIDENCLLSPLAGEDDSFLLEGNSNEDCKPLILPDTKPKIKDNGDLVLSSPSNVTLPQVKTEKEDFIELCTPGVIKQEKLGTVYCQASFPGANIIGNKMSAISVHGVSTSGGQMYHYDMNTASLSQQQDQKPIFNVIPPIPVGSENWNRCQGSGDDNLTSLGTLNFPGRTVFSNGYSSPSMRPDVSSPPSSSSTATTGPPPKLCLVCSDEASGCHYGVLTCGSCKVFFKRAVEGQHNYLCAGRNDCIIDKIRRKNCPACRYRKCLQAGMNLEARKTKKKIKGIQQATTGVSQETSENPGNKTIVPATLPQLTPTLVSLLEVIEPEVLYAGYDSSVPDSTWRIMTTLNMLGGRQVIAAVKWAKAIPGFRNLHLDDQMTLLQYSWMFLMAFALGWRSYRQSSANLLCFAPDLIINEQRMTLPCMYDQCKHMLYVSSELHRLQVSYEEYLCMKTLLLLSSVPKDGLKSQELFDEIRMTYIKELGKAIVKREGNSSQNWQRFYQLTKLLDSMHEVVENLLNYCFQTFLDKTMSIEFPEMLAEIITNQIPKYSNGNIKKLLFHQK
attribute measured: pIC50
Answers are plain numbers, as −log10 of the molar value.

compound: O=C(C=Cc1cccs1)NCC(c1ccccc1)C(c1ccccc1)c1ccccc1 (stereo not drawn)
pIC50: 6.72

compound: O=C(Cc1ccc(C(F)(F)F)cc1)NCC(c1ccccc1)C(c1ccccc1)c1ccccc1 (stereo not drawn)
pIC50: 5.82

compound: O=C(NCC(c1ccccc1)C(c1ccccc1)c1ccccc1)Nc1ccccc1Cl (stereo not drawn)
pIC50: 6.56

compound: O=C(Cc1cccs1)NCC(c1ccc(Cl)cc1)C(c1ccccc1)c1ccccc1 (stereo not drawn)
pIC50: 7.68

compound: CC(C)(C)C(=O)NCC1(c2ccccc2)CC1(c1ccccc1)c1ccccc1 (stereo not drawn)
pIC50: 6.18

stdin: Which measured pIC50 value corresponds to CCCCC(=O)NCC1(c2ccccc2)CC1(c1ccccc1)c1ccccc1 (stereo not drawn) ?
stdout: 6.17

Origin of the recorded values: patent US6509369B2
